assay: growth inhibition of non-replicating M. tuberculosis (AID 488890); conditions: Mycobacterium tuberculosis non-replicating, at 25 µM, stronger effect = higher value;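 note: plate controls were DMSO cells for no effect and high antibiotic wells for full effect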
The campaign covered roughly 320,000 compounds. About 1,300 (0.41%) were called active. Another 3% or so got no clear call; they are omitted. The list is a sample of the results. Results with a measured potency or affinity are listed apart.
quantityKind: inhibition

1. C/C(=C\C(=O)c1ccccc1)Nc1ccc(O)cc1 = 29.4%
2. O=C(COc1ccccc1C(=O)O)Nc1cccc2ccccc12 = 15.8%

Query: Request the reported inhibition associated with COC(=O)c1ccc(NC(=O)c2ccc(NC(=O)c3ccco3)cc2)cc1
Result: 9.4%

Query: Lookup CCOc1ccccc1OCCCC(=O)Nc1nc2ccccc2[nH]1
Result: 12.7%

Query: Similarly, CCn1cc(/C=N/NC(=O)c2ccc3c(c2)OCO3)c(C)n1 ?
Result: -8.38%

Query: Check COC(=O)c1cc(S(=O)(=O)NCc2ccccc2Cl)c[nH]1 too.
Result: -3.81%

====

inhibition by entry:
assay: growth inhibition of non-replicating M. tuberculosis (AID 488890); conditions: Mycobacterium tuberculosis non-replicating, at 25 µM, stronger effect = higher value
In all, about 320,000 compounds went through this assay and about 1,300 (0.41%) were called active. Another 3% or so got no clear call; they are omitted. Not all results are given here. Entries with a potency or affinity are not part of this list.
Kindly write the number and append the unit.

1) CCOc1cc(/C=N/NC(=O)COc2ccccc2C)ccc1OC(=O)c1cccs1 = 9.01%
2) Cc1cc(NC(=O)c2ccccc2C)ccc1NC(=O)c1ccccc1Cl = -10.5%
3) COc1ccc(C(=O)NNC(=O)C(=O)Nc2ccc(C)c(Cl)c2)cc1 = 73%
4) CCOc1cc(/C=N/NC(=O)COc2ccc(C)cc2)ccc1OC(=O)c1cccs1 = 48.1%
5) Cc1ccc(SCC(=O)Nc2cc(S(=O)(=O)N3CCCCC3)ccc2C)cc1 = 29.3%
6) Cc1cc(C(=O)OC(C)C(=O)N2CCc3ccccc32)ccc1[N+](=O)[O-] (stereo unspecified) = -2.01%
7) COc1ccc(/C=N/NC(=O)c2ccc(Br)cc2)cc1CN1CCOCC1 = -2.91%
8) Cc1ccc(C)c(OCCCN2CCCC2)c1 = -3.13%

Query: Recorded inhibition of Cc1c(Cl)cccc1NC(=O)CNC(=O)c1ccccc1F , please.
Result: 17.3%

Query: Here is the next molecule: CCc1ccc(CNC(=O)c2ccc3nc(C4CCCCC4)oc3c2)nc1
Result: 56.5%

Query: # iterate: Cc1ccc(C)c(NC(=O)CN(C)C(=O)C2=NNC(=O)CC2)c1
Result: 10.7%

====

Known inhibition of a selection of compounds
test: growth inhibition of non-replicating M. tuberculosis (AID 488890); settings: Mycobacterium tuberculosis non-replicating, at 25 µM, stronger effect = higher value
Among all 320,000 compounds or so, about 1,300 (0.41%) were called active. About 3% were inconclusive and are not listed. Not all results are given here. Results with a measured potency or affinity are listed apart.
# output: bare number, implied unit %

Example results:
1. CCC(=O)N(C1=C(NC(C)C)C(=O)c2ccccc2C1=O)C(C)C = 8.66
2. CC(=O)N(C1=C(N)C(=O)c2ccccc2C1=O)c1ccccc1 = 4.83
3. CC(C)C[C@@H](CN(N=O)[C@@H](Cc1ccccc1)CN(C)N=O)N(CCc1ccccc1)N=O = 1.78
4. O=C(N/N=C/c1cn(-c2ccccc2)nc1-c1cc2ccccc2o1)c1ccncc1 = 42.8
5. CNc1c(C(=O)O)ccc2c1C(=O)c1ccccc1C2=O = -14.2

Query: What value of inhibition has been reported for the following compound? O=c1cc(O)n(Cc2ccc(F)cc2)c(=O)[nH]1
Result: -1.55

Query: Consider next the compound O=C(CNC(=O)N1CC(=O)Nc2ccccc21)Nc1cc(Cl)ccc1Cl in the same way.
Result: 5.7

Query: Also, OC(C#CCN1CCCC1)c1ccccc1 (stereo unspecified) please.
Result: -3.04

Query: Another: CN(CC(=O)NCCc1ccc(F)cc1)Cc1ccccc1
Result: 20.9

Query: Another compound to check: O=C(N/N=C/c1cn(-c2ccccc2)nc1-c1cccs1)c1ccncc1
Result: 48.3

Query: Again, but for CC(CCc1ccccc1)NC(=O)CN(C)Cc1ccc(F)cc1 (stereo unspecified)
Result: 18

====

assay: growth inhibition of non-replicating M. tuberculosis (AID 488890); settings: Mycobacterium tuberculosis non-replicating, at 25 µM, stronger effect = higher value
Screen size: about 320,000 compounds; about 1,300 (0.41%) were called active. Not shown: some 3% with an inconclusive outcome. A selection follows. Entries with a potency or affinity are not part of this list.
Listed here: items and their measured inhibition.
Hi! Could you send only the number? It should be in %, unit omitted.

Query: Give its inhibition value. Item: O=C(NCCCN1CCOCC1)c1cc2ccccc2o1
Result: -15.4

====

Known inhibition of a selection of compounds
experiment: growth inhibition of non-replicating M. tuberculosis (AID 488890); details: Mycobacterium tuberculosis non-replicating, at 25 µM, stronger effect = higher value;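 note: plate controls were DMSO cells for no effect and high antibiotic wells for full effect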
Among all 320,000 compounds or so, about 1,300 (0.41%) were called active. Inconclusive results (about 3%) are left out. A selection follows. Measured potencies and affinities stand elsewhere.
Dear colleague, please return just the value in %, with no unit written.

Use the examples below as a reference point.
1. Cc1cc(C)n(-c2ccccc2[N+](=O)[O-])n1 = 24.1
2. O=C(O)CCC(=O)Nc1ccc(Br)cn1 = -12.1

Query: Query (compound): Cc1ccc(-c2cc(C(F)F)nc(N3CCC(C)CC3)n2)cc1 ; field requested: inhibition
Result: 8.45

Query: Also, O=C(NCCOc1ccccc1)c1cc(C(=O)NCCOc2ccccc2)cc([N+](=O)[O-])c1 please.
Result: -6.28

Query: Same question, Cc1cc(N/N=C/c2ccc(O)cc2O)nc(-c2ccccc2O)n1 this time
Result: 0.04

Query: Follow-up item: CCOC(=O)COc1ccccc1/C=N/O
Result: 15

Query: Similarly, COc1ccc(OC)c(/C=N/Nc2cc(C)nc(N3CCOCC3)n2)c1 ?
Result: 8.92

Query: Entry to check: Cc1ccc(-c2cc(C(=O)Nc3cccnc3)[nH]n2)c(O)c1C
Result: 3.48

Query: Another: Cc1ccc(N/C=C/C(=O)c2cccs2)cc1C
Result: 35.6

Query: Can you check Cc1ccc(C(=O)NCc2ccc3c(c2)OCO3)cc1Cl next?
Result: 45.9

Query: What would you report for CC(C)(C)c1cc(NCCCn2ccnc2)n2ncc(-c3ccc(Cl)cc3)c2n1 ?
Result: 67.9

====

assay: growth inhibition of non-replicating M. tuberculosis (AID 488890); conditions: Mycobacterium tuberculosis non-replicating, at 25 µM, stronger effect = higher value;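 note: plate controls were DMSO cells for no effect and high antibiotic wells for full effect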
In all, about 320,000 compounds went through this assay and about 1,300 (0.41%) were called active. Another 3% or so got no clear call; they are omitted. A selection follows. Entries with a potency or affinity are not part of this list.
quantityKind: inhibition (%)
The response must be a number in % with no trailing unit.

Here is how some compounds turned out for inhibition.
1. Cc1cc(Cl)ccc1N1C(=O)CC(NNC(=O)c2cccnc2)C1=O (stereo unspecified) = 5.86
2. CCCCN(C(=O)Cc1ccc2c(c1)OCCO2)c1c(N)n(CCC)c(=O)[nH]c1=O = -17.1
3. CCOCCn1ccc2c(OCC(=O)Nc3ccccc3F)cccc2c1=O = 4.93
4. COCCNC(=O)C1CCC(=O)N1S(=O)(=O)c1ccc(C)cc1 (stereo unspecified) = 1.96
5. COc1ccccc1C(=O)N(CCC1CCCN1C)c1nc2ccccc2s1 (stereo unspecified) = 12.9

Query: Which inhibition is reported for this compound? O=C(CCc1ccccc1)Nc1ccccc1F
Result: 18.9

Query: And for CSc1ccccc1C(=O)NCCCOC(C)C ?
Result: -17.5

Query: And for CN(C(=O)c1ccc2c(Cl)c3c(nc2c1)CCC3)c1ccccc1 ?
Result: 32.3

====

test: growth inhibition of non-replicating M. tuberculosis (AID 488890); details: Mycobacterium tuberculosis non-replicating, at 25 µM, stronger effect = higher value;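 note: plate controls were DMSO cells for no effect and high antibiotic wells for full effect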
Screen size: about 320,000 compounds; about 1,300 (0.41%) were called active. Not shown: some 3% with an inconclusive outcome. A selection follows. Potency and affinity values are given separately.
quantityKind: inhibition
Answer with the figure and its unit, nothing else.

Take a look at these entries with their results.
1. Cn1nc(C(=O)NNC(=O)C2CSC3(C)CCC(=O)N23)c2ccccc2c1=O (stereo unspecified) = -11.1%
2. O=C(N/N=C\c1c(O)ccc2ccccc12)c1ccc(Cn2cccn2)o1 = -4.74%
3. COc1ccc(C(=O)Nc2ccccc2)cc1S(=O)(=O)NCc1ccco1 = -9.46%
4. O=[N+]([O-])c1ccc(Cc2nnc(-c3ccccc3Cl)o2)cc1 = 34.9%

Consider the record given below.
Query: Which inhibition is listed for CCCc1cc(C(=O)N2CCCC(N3CCN(c4ccccc4C)CC3)C2)n(C)n1 (stereo unspecified) ?
Result: 8.14%
